Recorded pIC50, one value per entry.
TGT: trypsin (Bos taurus, UniProt P00760)
Sequence (P00760 24-246): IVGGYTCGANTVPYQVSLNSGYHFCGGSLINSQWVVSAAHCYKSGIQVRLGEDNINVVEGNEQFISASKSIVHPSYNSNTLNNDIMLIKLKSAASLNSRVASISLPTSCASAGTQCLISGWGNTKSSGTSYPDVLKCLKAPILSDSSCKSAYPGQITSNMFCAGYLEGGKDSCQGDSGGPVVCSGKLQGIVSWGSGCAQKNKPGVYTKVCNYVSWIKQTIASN
pIC50: −log10 of the molar value.

Solved entries (count: 5):
[[record]]
compound = "N=C(N)NC(=O)c1nc(Cl)c(N)nc1N [amiloride]"
value = "< 3.60"

[[record]]
compound = "N=C(N)c1ncc(NCC(=O)O)nc1N"
value = "< 3.60"

[[record]]
compound = "NC(=O)c1nc(Cl)c(NCC(=O)OCc2ccccc2)nc1N"
value = "< 3.60"

[[record]]
compound = "N/C(=N\\O)c1nc(Cl)c(NCC(=O)OCc2ccccc2)nc1N"
value = "< 3.60"

[[record]]
compound = "NC(N)=NC(=O)c1nc(Cl)c(NCC(=O)OCc2ccccc2)nc1N"
value = "< 3.60"


As a next step, examine the compound that follows.
Report pIC50 for "N/C(=N\O)c1ncc(NCC(=O)O)nc1N" please.
< 3.60
